Attribution: patent US20220017615A1

molecular target: T1, His-tagged CD47 recombinant protein, CD47-His (human, UniProt Q08722 19-141, limits assumed); assay: ELISA on coated CD47-His; Ab 13.333 nM
T1 construct: it is not restated for CD47-His; also called human CD47-His protein; antigen CD47-His; not shown: His tag
Endpoint name: OD450 nm
Give bare numbers.

# Binder, OD450 nm
rows = [
    ("132D1E5 (antibody, V domains shown, Murine hybridoma antibody purified on protein G) VH: QVQLQQPGAELVRPGSSVKLSCKASGYTFTNNWMHWVKQRPLQGLEWIGNIDPSDSETHYNQKFKDKATLTVDKSSTTAYIQLSSLTSEDSAVYYCARWRGGGRGAMDYWGQGTSVTVSS VL: DVQITQSPSYLAASPGETITINCRTSKNISKFLAWYQEKPGKTNKLLIYSGSTLQSGIPSRFSGSGSGTDFTLTISNLEPEDFAMYYCQQHNEYPWTFGRGTKLEIK", 2.95),
]

Shift focus to the following entry.
Note to self: OD450 nm recorded for 54G8G6 (antibody, V domains shown, Murine hybridoma antibody purified on protein G) VH: QVQLQQPGADLVKPGASVKMSCKASGYTFTSYWIIWVKQRPGQGLEWIGDINPGRGSPNYNEKFKRKATLTVDTSSSTAYMQLSSLTSEDSAVYYCVRGGLRRFDHWGQGTLVTVSA VL: ENVLTQSPAIMSASPGEKVTMTCRASSSVSSSYLHWYQQKSGASPKLWIYSTSTLASGVPARFSGSGSGTSYSLTISSVEAEDAATYYCQQYSGYPYTFGGGTKLEIK was 2.94
